Measured Human PPB (Fu,plasma), fraction unbound (fraction unbound) by item
Tgt: human plasma proteins
Experimental details: plasma protein binding, ultracentrifugation of spiked plasma, LC-MS/MS
Starred links: 1 amine or outer side, 2 acyl side, 3 side chain; linkers in the order of their positions; H or OH if unused. Non-standard residues stand in square brackets, D forms with d. Groups on a side chain read outwards from the residue. No end group written: not given here. *: point of attachment. C16 diacid = O=C(O)CCCCCCCCCCCCCCC(=O)*; C15 diacid = O=C(O)CCCCCCCCCCCCCC(=O)*; γGlu = O=C(O)[C@H](CCC(=O)[*:2])N[*:1]; NMeY = CN[C@@H](Cc1ccc(O)cc1)C(=O)O; AEEA = NCCOCCOCC(=O)O; Aib = CC(C)(N)C(=O)O
No unit in the answer, only the number.

[NMeY][Aib]EGTFISDYSIAK([Gly-Gly-Glu-Glu-Glu-C15 diacid])DR[Aib]AQ[Aib]NFVNWLLAQK-NH2 (not fully specified) [Compound 30] ... 0.0407
[NMeY][Aib]EGTFISDYSIALDR[Aib]K([AEEA-AEEA-γGlu-γGlu-C16 diacid])Q[Aib]NFVNWLLAQSPSSGAPPPS-NH2 [Compound 119] ... 0.0185
[NMeY][Aib]EGTFISDYSI[Aib]LDRK([AEEA-AEEA-γGlu-γGlu-C15 diacid])AQ[Aib]NFVNWLLAQRPSSGAPPPS-NH2 (not fully specified (N-terminus)) [Compound 20] ... 0.0013

Now consider a different binder.
Quickly give me recorded Human PPB (Fu,plasma), fraction unbound (fraction unbound) for [NMeY][Aib]EGTFISDYSIAK([AEEA-AEEA-γGlu-γGlu-C15 diacid])DR[Aib]AQ[Aib]NFVNWLLAQS [Compound 16] 0.0441
